The reported numbers originate from patent US20250144077A1.

# measurementProtocol: Single-dose, open-label pharmacokinetics of herombopag in subjects with normal liver function, mild and moderate hepatic impairments
# Type: in vivo, human
# setupConditions: human, plasma, oral, 7.5 mg, geometric least squares mean; mild hepatic impairment group, n 8; read-out: Cmax GLSM
attributeMeasured: Cmax (ng/mL)

1. CC1=NN(c2ccc3c(c2)CCCC3)C(=O)/C1=N\Nc1cccc(-c2ccc(C(=O)O)o2)c1O: 62.6

###

# measurementProtocol: Single-dose, open-label pharmacokinetics of herombopag in subjects with normal liver function, mild and moderate hepatic impairments
# Assay type: in vivo, human
# setupConditions: human, plasma, po, 7.5 mg, single 7.5 mg oral dose, fasted; moderate hepatic impairment (n = 8); Median (Min-Max); read-out: Tmax
attributeMeasured: Tmax (h)

1. CC1=NN(c2ccc3c(c2)CCCC3)C(=O)/C1=N\Nc1cccc(-c2ccc(C(=O)O)o2)c1O: 2
